# System: Escherichia coli TOP10;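 also: peptides expressed intracellularly from a pBAD plasmid library in pooled LB shake-flask culture, induced with 0.3% L-arabinose, DNA abundance read by NGS, three biological replicates, DESeq2 with apeglm shrinkage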
# test: shrunken log2 fold change of peptide-encoding DNA abundance (4.5 h post-induction vs induction); higher = less antimicrobial activity (less host growth inhibition)
# run-parameters: time post-induction: 4.5 h; library: site-saturation at positions 5, 18, 19, 20
Parameter threshold = 0.05. Response is met when shrunken log2 fold change meets or exceeds it, else not met.

input: Determine whether measured shrunken log2 fold change meets or exceeds 0.05 for RRIRWRPPRLPRPRPRPSHNPRP
output: not met

input: Determine whether measured shrunken log2 fold change meets or exceeds 0.05 for RRIRFRPPRLPRPRPRPIEDPRP
output: not met

input: Determine whether measured shrunken log2 fold change meets or exceeds 0.05 for RRIRMRPPRLPRPRPRPWFHPRP
output: not met

input: Determine whether measured shrunken log2 fold change meets or exceeds 0.05 for RRIRPRPPRLPRPRPRPYWSPRP
output: not met

input: Determine whether measured shrunken log2 fold change meets or exceeds 0.05 for RRIRRRPPRLPRPRPRPPQPPRP
output: met

input: Determine whether measured shrunken log2 fold change meets or exceeds 0.05 for RRIRGRPPRLPRPRPRPKFMPRP
output: met

input: Determine whether measured shrunken log2 fold change meets or exceeds 0.05 for RRIRIRPPRLPRPRPRPWARPRP
output: not met

input: Determine whether measured shrunken log2 fold change meets or exceeds 0.05 for RRIRFRPPRLPRPRPRPSAKPRP
output: met

input: Determine whether measured shrunken log2 fold change meets or exceeds 0.05 for RRIRTRPPRLPRPRPRPPDCPRP
output: not met

input: Determine whether measured shrunken log2 fold change meets or exceeds 0.05 for RRIRARPPRLPRPRPRPAFWPRP
output: met
